test-target: human KLB and human FGFR1c co-expressed on HEK293/hKLB/hFGFR1c/SRE-luc cells (human, UniProt Q86Z14 1-1044; P11362 22-822)
Sequence (Q86Z14 whole entry, chain 1 of 2): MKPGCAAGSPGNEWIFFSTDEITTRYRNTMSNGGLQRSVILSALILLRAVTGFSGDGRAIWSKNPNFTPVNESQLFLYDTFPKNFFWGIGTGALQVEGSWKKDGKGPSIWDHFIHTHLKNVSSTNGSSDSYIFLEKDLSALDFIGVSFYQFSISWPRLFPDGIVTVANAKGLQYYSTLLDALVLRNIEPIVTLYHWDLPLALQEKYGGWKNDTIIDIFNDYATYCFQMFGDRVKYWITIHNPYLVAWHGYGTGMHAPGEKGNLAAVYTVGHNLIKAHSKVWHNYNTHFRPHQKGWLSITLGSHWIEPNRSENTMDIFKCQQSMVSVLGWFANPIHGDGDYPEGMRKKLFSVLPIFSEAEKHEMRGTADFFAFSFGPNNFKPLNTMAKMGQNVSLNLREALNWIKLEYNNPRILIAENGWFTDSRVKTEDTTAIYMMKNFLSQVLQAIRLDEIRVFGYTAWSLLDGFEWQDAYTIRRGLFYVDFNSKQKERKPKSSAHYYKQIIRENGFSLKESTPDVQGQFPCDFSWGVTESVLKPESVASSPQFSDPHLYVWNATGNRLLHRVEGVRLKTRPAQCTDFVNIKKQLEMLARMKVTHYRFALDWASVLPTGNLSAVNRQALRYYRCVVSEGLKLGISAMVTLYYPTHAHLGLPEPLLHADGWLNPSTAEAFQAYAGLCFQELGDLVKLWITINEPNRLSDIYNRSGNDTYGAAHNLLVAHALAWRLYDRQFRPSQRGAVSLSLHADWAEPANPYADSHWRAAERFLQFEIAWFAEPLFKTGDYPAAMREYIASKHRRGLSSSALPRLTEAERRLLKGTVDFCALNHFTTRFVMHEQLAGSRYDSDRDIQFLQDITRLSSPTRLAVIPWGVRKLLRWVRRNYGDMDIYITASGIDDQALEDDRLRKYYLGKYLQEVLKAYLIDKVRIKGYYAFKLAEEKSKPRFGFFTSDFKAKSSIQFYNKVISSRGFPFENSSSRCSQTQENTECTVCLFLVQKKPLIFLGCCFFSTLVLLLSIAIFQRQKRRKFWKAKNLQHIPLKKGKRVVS
Sequence (P11362 other isoform, or with tags, fused parts or gaps limits assumed, chain 2 of 2): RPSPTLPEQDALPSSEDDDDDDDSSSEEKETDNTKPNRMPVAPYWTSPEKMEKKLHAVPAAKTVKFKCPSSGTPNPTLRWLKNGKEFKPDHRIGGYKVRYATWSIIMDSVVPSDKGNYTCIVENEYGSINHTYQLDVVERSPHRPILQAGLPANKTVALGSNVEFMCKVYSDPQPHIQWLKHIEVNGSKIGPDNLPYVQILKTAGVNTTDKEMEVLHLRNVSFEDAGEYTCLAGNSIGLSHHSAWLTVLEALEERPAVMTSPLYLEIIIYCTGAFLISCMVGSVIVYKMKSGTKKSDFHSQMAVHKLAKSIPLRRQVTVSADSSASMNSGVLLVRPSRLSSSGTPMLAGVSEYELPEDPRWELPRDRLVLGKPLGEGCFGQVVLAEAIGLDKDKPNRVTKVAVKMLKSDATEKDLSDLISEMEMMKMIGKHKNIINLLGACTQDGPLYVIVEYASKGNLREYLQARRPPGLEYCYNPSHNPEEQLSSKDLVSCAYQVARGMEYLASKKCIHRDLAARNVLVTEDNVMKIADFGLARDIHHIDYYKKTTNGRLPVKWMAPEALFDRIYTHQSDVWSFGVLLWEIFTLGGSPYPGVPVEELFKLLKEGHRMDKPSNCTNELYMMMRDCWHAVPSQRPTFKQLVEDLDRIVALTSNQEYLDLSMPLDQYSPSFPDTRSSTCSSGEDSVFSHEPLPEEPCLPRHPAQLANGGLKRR
method: cell-based or functional assay
readout-name: EC50, SRE-luc activation without ligand (nM)
// units = nM; emit number, no label

Below, each entry is followed by its recorded EC50, SRE-luc activation without ligand result.
QUERY: What EC50, SRE-luc activation without ligand value was documented for this binder, H4H8837P (antibody, V domains shown, human IgG4 Fc (H4H prefix)) VH: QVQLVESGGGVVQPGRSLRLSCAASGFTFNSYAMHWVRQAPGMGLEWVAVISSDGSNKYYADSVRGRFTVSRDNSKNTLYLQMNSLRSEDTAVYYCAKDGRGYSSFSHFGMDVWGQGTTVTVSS VL: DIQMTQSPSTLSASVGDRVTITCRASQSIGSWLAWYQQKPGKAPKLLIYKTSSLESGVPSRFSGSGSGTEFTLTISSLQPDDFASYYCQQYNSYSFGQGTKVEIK ?
RESULT: 0.12

QUERY: Data request, read-out EC50, SRE-luc activation without ligand, for H4H8856P (antibody, V domains shown, human IgG4 Fc (H4H prefix)) VH: QVQLQESGPGLVKPSETLSLTCTVSGGSISSYYWSWIRQPPGKGLEWIAYIYYSGITKYNPSLKSRVTISADTSKNQFSLKLSSVTAADTAVYYCARHGIFGVMEYFQRWGQGTLVTVSS VL: DIQMTQSPSSLSASIGDRVTITCQASQDISNFLNWYQQKPGKAPTLLIYDVSNMETGVPSRFSGSGYGTDFTLTISSLKPEDIATYYCQQYDNIPLTFGGGTKVEIK
RESULT: 0.3

QUERY: Item under review: H1H8898P (antibody, V domains shown, H1H Fc prefix (human Fc)) VH: QVQLVESGGGLVKPGGSLRLSCAASGFIFSDYYMSWIRQAPGKGLDWISYISPSGSTIYYADSVKGRFTISRDNAKNSLYLQMNSLRADDTAVYYCARTGIQLWSVYFDYWGQGTLVTVSS VL: EIVMTQSPATLSVSPGERATLSCRASQSVGSNLAWYQQKPGQAPRLLIYGASTRANGIPARFSGSGSGTEFTLTISGLQSEDFAVYYCQQYNNWPTFGQGTKLEIK . Reported EC50, SRE-luc activation without ligand?
RESULT: 8.9

QUERY: So what does the record say about EC50, SRE-luc activation without ligand for H4H8878P (antibody, V domains shown, human IgG4 Fc (H4H prefix)) VH: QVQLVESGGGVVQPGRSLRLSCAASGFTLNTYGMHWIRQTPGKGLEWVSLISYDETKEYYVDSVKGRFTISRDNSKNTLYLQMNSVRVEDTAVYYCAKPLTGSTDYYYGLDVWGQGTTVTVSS VL: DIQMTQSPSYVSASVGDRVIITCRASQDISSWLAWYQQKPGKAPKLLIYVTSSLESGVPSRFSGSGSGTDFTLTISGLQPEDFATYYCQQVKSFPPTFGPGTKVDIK ?
RESULT: 0.41

Continuing:
QUERY: Param item = H4H8880P (antibody, V domains shown, human IgG4 Fc (H4H prefix)) VH: EVQLVESGGGVVQPGGSLRLSCAASGFTFSLYAMSWVRQAPGKGLEWVSAISGSAHGAYYADSVKGRFTISRDNSKNSLYLQMNSLRAEDTAIYYCAKDLVIAVAGTFDYWGQGTLVTVSS VL: DIQMTQSPSSLSASVGDRVTITCRASQIISTYLNWYQQKPGKAPKILIYTASSLKSGVPSRFSGSGSGTDFTLTISSLQPEDFATYYCQQTYSSPRFTFGPGTKVDIK ; retrieve measured EC50, SRE-luc activation without ligand.
RESULT: 0.054
